Hello, the source for this data is BigSolDB 2.1, in case you need it.

settings: in isopropanol, 298.15 K

{"smilesEntry": "NC(=O)OCCCc1ccccc1", "solubility (mole fraction)": 0.0261}

====

settings: in n-pentanol, 318.15 K

{"smilesEntry": "NC(=O)OCCCc1ccccc1", "solubility (mole fraction)": 0.081}

====

settings: in 2-butanone, 288.15 K

{"smilesEntry": "NC(=O)OCCCc1ccccc1", "solubility (mole fraction)": 0.0718}

====

settings: in n-pentanol, 313.15 K

{"smilesEntry": "NC(=O)OCCCc1ccccc1", "solubility (mole fraction)": 0.0668}

====

settings: in n-pentanol, 308.15 K
recordedMetric: solubility (mole fraction)

{"smilesEntry": "NC(=O)OCCCc1ccccc1", "recordedMetric": "solubility (mole fraction)", "val": 0.0523}

====

settings: in water, 313.15 K
recordedMetric: solubility (mole fraction)

{"smilesEntry": "NC(=O)OCCCc1ccccc1", "val": 0.000229}

====

settings: in sec-butanol, 308.15 K

{"smilesEntry": "NC(=O)OCCCc1ccccc1", "solubility (mole fraction)": 0.0515}

====

settings: in acetone, 313.15 K
recordedMetric: solubility (mole fraction)

{"smilesEntry": "NC(=O)OCCCc1ccccc1", "val": 0.158}

====

settings: in n-propanol, 323.15 K

{"smilesEntry": "NC(=O)OCCCc1ccccc1", "solubility (mole fraction)": 0.0989}

====

settings: in n-butanol, 283.15 K

{"smilesEntry": "NC(=O)OCCCc1ccccc1", "solubility (mole fraction)": 0.00704}

====

settings: in ethyl acetate, 298.15 K

{"smilesEntry": "NC(=O)OCCCc1ccccc1", "solubility (mole fraction)": 0.0803}

====

settings: in ethyl acetate, 323.15 K
recordedMetric: solubility (mole fraction)

{"smilesEntry": "NC(=O)OCCCc1ccccc1", "val": 0.144}

====

settings: in water, 308.15 K

{"smilesEntry": "NC(=O)OCCCc1ccccc1", "solubility (mole fraction)": 0.000165}

====

settings: in water, 303.15 K
recordedMetric: solubility (mole fraction)

{"smilesEntry": "NC(=O)OCCCc1ccccc1", "val": 0.000107}

====

settings: in sec-butanol, 283.15 K

{"smilesEntry": "NC(=O)OCCCc1ccccc1", "solubility (mole fraction)": 0.0138}

====

settings: in isopropanol, 293.15 K

{"smilesEntry": "NC(=O)OCCCc1ccccc1", "solubility (mole fraction)": 0.0207}

====

settings: in ethanol, 293.15 K
recordedMetric: solubility (mole fraction)

{"smilesEntry": "NC(=O)OCCCc1ccccc1", "val": 0.0239}

====

settings: in sec-butanol, 303.15 K
recordedMetric: solubility (mole fraction)

{"smilesEntry": "NC(=O)OCCCc1ccccc1", "val": 0.0405}

====

settings: in water, 318.15 K

{"smilesEntry": "NC(=O)OCCCc1ccccc1", "solubility (mole fraction)": 0.000293}

====

settings: in n-butanol, 303.15 K

{"smilesEntry": "NC(=O)OCCCc1ccccc1", "solubility (mole fraction)": 0.0391}

====

settings: in ethanol, 323.15 K

{"smilesEntry": "NC(=O)OCCCc1ccccc1", "solubility (mole fraction)": 0.1}

====

settings: in methyl acetate, 318.15 K
recordedMetric: solubility (mole fraction)

{"smilesEntry": "NC(=O)OCCCc1ccccc1", "val": 0.161}

====

settings: in ethyl acetate, 313.15 K

{"smilesEntry": "NC(=O)OCCCc1ccccc1", "solubility (mole fraction)": 0.117}
